- System: Mus musculus
- Measurement notes: Toxicity in ovariectomized ICR mouse assessed as effect on uterine weight at 110.3 nmol/kg, po treated for 4 weeks measured after 1 day of last treatment
- Type: organism-based
- Test conditions: in vivo, 24 h
Residues, ends and D or L forms follow the SMILES beside them. *: point of attachment. Succinyl(O17-estradiol) = C[C@]12CC[C@@H]3c4ccc(O)cc4CC[C@H]3[C@@H]1CC[C@@H]2OC(=O)CCC(=O)*; Acetyl(estradiol-3-yloxy) = C[C@]12CC[C@@H]3c4ccc(OCC(=O)*)cc4CC[C@H]3[C@@H]1CC[C@@H]2O
Consider the following compounds; for each one, report its Activity.
Give bare numbers, in g.

Use these answered entries as a reference point.
C[C@]12CC[C@@H]3c4ccc(OCC(=O)N[C@@H](CCCNC(=N)N)C(=O)NCC(=O)N[C@@H](CC(=O)O)C(=O)N[C@@H](Cc5ccccc5)C(=O)N[C@@H](CCCNC(=N)N)C(=O)NCC(=O)N[C@@H](CC(=O)O)C(=O)N[C@@H](Cc5ccccc5)C(=O)O)cc4CC[C@H]3[C@@H]1CC[C@@H]2O ({Acetyl(estradiol-3-yloxy)}-RGDFRGDF-OH) :: 0.061
C[C@]12CC[C@@H]3c4ccc(O)cc4CC[C@H]3[C@@H]1CC[C@@H]2OC(=O)CCC(=O)N[C@@H](CCCNC(=N)N)C(=O)NCC(=O)N[C@@H](CC(=O)O)C(=O)N[C@@H](CO)C(=O)O ({Succinyl(O17-estradiol)}-RGDS-OH) :: 0.063
C[C@]12CC[C@@H]3c4ccc(OCC(=O)N[C@@H](CCCNC(=N)N)C(=O)NCC(=O)N[C@@H](CC(=O)O)C(=O)N[C@@H](CO)C(=O)N[C@@H](CCCNC(=N)N)C(=O)NCC(=O)N[C@@H](CC(=O)O)C(=O)N[C@@H](CO)C(=O)O)cc4CC[C@H]3[C@@H]1CC[C@@H]2O ({Acetyl(estradiol-3-yloxy)}-RGDSRGDS-OH) :: 0.062

Moving on to the next compound.
Endpoint output: Activity of C[C@]12CC[C@@H]3c4ccc(OCC(=O)N[C@@H](CCCNC(=N)N)C(=O)NCC(=O)N[C@@H](CC(=O)O)C(=O)N[C@@H](Cc5ccccc5)C(=O)O)cc4CC[C@H]3[C@@H]1CC[C@@H]2O ({Acetyl(estradiol-3-yloxy)}-RGDF-OH) . Value? 0.067

====

- Test system: Mus musculus
- Measurement notes: Antiosteoporosis activity in ovariectomized ICR mouse assessed as calcium content in femur at 110.3 nmol/kg, po treated for 4 weeks measured after 1 day of last treatment by o-methyl-phenolphthalein
- Format: functional
Residues, ends and D or L forms follow the SMILES beside them. *: point of attachment. Succinyl(O17-estradiol) = C[C@]12CC[C@@H]3c4ccc(O)cc4CC[C@H]3[C@@H]1CC[C@@H]2OC(=O)CCC(=O)*; Acetyl(estradiol-3-yloxy) = C[C@]12CC[C@@H]3c4ccc(OCC(=O)*)cc4CC[C@H]3[C@@H]1CC[C@@H]2O
Recorded endpoint: Activity (%)
Answers are plain numbers, in %.

C[C@]12CC[C@@H]3c4ccc(OCC(=O)N[C@@H](CCCNC(=N)N)C(=O)NCC(=O)N[C@@H](CC(=O)O)C(=O)N[C@@H](CO)C(=O)N[C@@H](CCCNC(=N)N)C(=O)NCC(=O)N[C@@H](CC(=O)O)C(=O)N[C@@H](CO)C(=O)O)cc4CC[C@H]3[C@@H]1CC[C@@H]2O ({Acetyl(estradiol-3-yloxy)}-RGDSRGDS-OH) :: 63.12
C[C@]12CC[C@@H]3c4ccc(OCC(=O)N[C@@H](CCCNC(=N)N)C(=O)NCC(=O)N[C@@H](CC(=O)O)C(=O)N[C@@H](Cc5ccccc5)C(=O)N[C@@H](CCCNC(=N)N)C(=O)NCC(=O)N[C@@H](CC(=O)O)C(=O)N[C@@H](Cc5ccccc5)C(=O)O)cc4CC[C@H]3[C@@H]1CC[C@@H]2O ({Acetyl(estradiol-3-yloxy)}-RGDFRGDF-OH) :: 63.92
CC(C)[C@H](NC(=O)[C@H](CC(=O)O)NC(=O)CNC(=O)[C@H](CCCNC(=N)N)NC(=O)CCC(=O)O[C@H]1CC[C@H]2[C@@H]3CCc4cc(O)ccc4[C@H]3CC[C@]12C)C(=O)O ({Succinyl(O17-estradiol)}-RGDV-OH) :: 57.49
C[C@]12CC[C@@H]3c4ccc(O)cc4CC[C@H]3[C@@H]1CC[C@@H]2OC(=O)CCC(=O)N[C@@H](CCCNC(=N)N)C(=O)NCC(=O)N[C@@H](CC(=O)O)C(=O)N[C@@H](Cc1ccccc1)C(=O)N[C@@H](CCCNC(=N)N)C(=O)NCC(=O)N[C@@H](CC(=O)O)C(=O)N[C@@H](Cc1ccccc1)C(=O)O ({Succinyl(O17-estradiol)}-RGDFRGDF-OH) :: 64.36
C[C@]12CC[C@@H]3c4ccc(O)cc4CC[C@H]3[C@@H]1CC[C@@H]2OC(=O)CCC(=O)N[C@@H](CCCNC(=N)N)C(=O)NCC(=O)N[C@@H](CC(=O)O)C(=O)N[C@@H](Cc1ccccc1)C(=O)O ({Succinyl(O17-estradiol)}-RGDF-OH) :: 59.36

List Activity for every entry below, keeping the order given.
1. C[C@]12CC[C@@H]3c4ccc(OCC(=O)N[C@@H](CCCNC(=N)N)C(=O)NCC(=O)N[C@@H](CC(=O)O)C(=O)N[C@@H](CO)C(=O)O)cc4CC[C@H]3[C@@H]1CC[C@@H]2O ({Acetyl(estradiol-3-yloxy)}-RGDS-OH)
2. CC(C)[C@H](NC(=O)[C@H](CC(=O)O)NC(=O)CNC(=O)[C@H](CCCNC(=N)N)NC(=O)COc1ccc2c(c1)CC[C@@H]1[C@@H]2CC[C@]2(C)[C@@H](O)CC[C@@H]12)C(=O)O ({Acetyl(estradiol-3-yloxy)}-RGDV-OH)

[58.76, 57.84]
